Experiment: yeast display, Sf9 membrane polyspecificity reagent, FACS + sequencing; frameworks hold sequencing errors
metric-name: polyreactivity (PSR sort gate)

>>> observed_result("QVQLVESGGGLVQAGGSLRLSCAASGRIFDNYAMGWYRQAPGKERELVAAITYIDSGTYYADSVKGRFTISRDNAKNTVYLQMNSLKPEDTAVYYCAVRLNSDSKRKTQKFGYWGQGTQVTVSS")
"low polyreactivity"
>>> observed_result("QVQLVESGRGLVQAGGSLRLSCAASGSIFDKYAMGWDRQAPGKEREMVAAISYSGGRTYYADSVKGRFTISRDNAKNTVYLQMNCLNPEDTAVYYCNAVGSVITDFGYWGQGTQVTVSS")
"low polyreactivity"
>>> observed_result("QVHLVESGGGLVQAGGSLRLSCAASGFTFNWYAMGWYRHAPGKERELVAAINSSGGNTYYADSVKGRFTISRDNAKNTVYLQMNSLKPEDTAVYYCAALLWGYVAFDYWGQGTQVTVSS")
"high polyreactivity"
>>> observed_result("QVQLVESGGGLVQAGGSLRLSCAASGSIQYYAMGWYRHAPGKERELVAAIRFSGGRTYYADSVKGRFTISRDNAKITVYLQMHSLKPEHTAVYYCAAYRSPRRSGAPSQGKFDYCGQGTQVTVSS")
"low polyreactivity"
>>> observed_result("QVQLVESGGGLVQAGGSLRLSCAASGFTFYKYAMGWYRQAPGKERELVAGISSRGTRTYYADSVKGRFTISRDNAKNTVYLQMNSLKPEDTAVYDCAADSNTVNYDYWGQGTQVTVSS")
"high polyreactivity"
>>> observed_result("QVQLVESGGGLVQAGGSLRLSCAASGFTFAYYAMGWYRQAPGKERELVAAISSGGGSTYYADSVKGRFTISRDNAKNTVYLQMNSLKPEDTAVYYCATTIQISYDSIWYDYWGQGTQVTVSS")
"high polyreactivity"
>>> observed_result("QVQLVESGGVLVKAGGSLRLSCAASGRIFGYYAMGWYIQAPGKERELFAAITYSSGRTYYADSVKGRFTISRDNAKNTFYLQMNSLKPEDTAVYYCAARYHYYLSPATYYYWGQGTQVTVSS")
"high polyreactivity"
>>> observed_result("QVQLVESGGGLVQAGGSLRLSCAASGSIFTVYAMGWYRQAPGKERELVAAISSSGGTTYYADSVKGRFTISRDNAKNTVYLQMTSLKPEDTAVYYCAAPTHSPYDYWGQGTQVTVSS")
"low polyreactivity"
>>> observed_result("QVQLVESGGGLVQAGGRLRLSCAASGRIFPRYVMGWYRQAHGKERELVAAITYRGGSTSYADSVKGRFTISRDNAKNTVYLQMNSLKPEDTAVYYCNAYRRAGRTVGTTRRYYYLGQGTQVTVSS")
"high polyreactivity"
>>> observed_result("QVHLVESGGGLVQAGGSLRLSCAASGSIFVLYAMGWYRQAPGKERELVAAISRGVGGTNYADSVKGRFTISRDNAKNTVYLQMNSLKPEDTAVYYCAADWLWAWHYYGAMDYWGQGTQVTVSS")
"high polyreactivity"
>>> observed_result("QVQLQESVGGLVQAGRSLRLSCAASGYISHADEMGWYRQAPGKEHELVASISNGGSTNYADSVKGRFTISRDNANNTVYLQMNSLKSVDTAVYFCAAWTGQVDIHYYWGQGTQVTVSS")
"low polyreactivity"
>>> observed_result("QVQLVESGGGLFQAGGSLRLSCAASGSTFYIYAMGWYRHAPGKERELVARITRGGTTYADSVKGRFTISRDNAKNTVYLQMNSLKPEDTAVYYCNAYISDDRYWSPAIEEDYWGQGTQVTVSS")
"high polyreactivity"
>>> observed_result("QVQLVESGGGLVQAGGSLRLSCAASGRIFNRYAMGWYRQAPGKERELVAAINYRGSSTYYADSVKGRFTISRDNAKNTGYLQMNSLKPEVTAVYYCKTYGQTDTYWRYYYWGQGTQVTVSS")
"high polyreactivity"
>>> observed_result("QVQLVESGGGLVQAGGSLRLSCAASGSIFWAYTMGWYRQAPGKERELVAAISASGGSTYYADSVKGRFTISRDNAKNTVYLQMNSLKPEDTAVYYCAAVYDLGYYGPIWAIVLDDYWGQGTQVTVSS")
"low polyreactivity"
>>> observed_result("QVQLVESGGGLVQAGGSRRLSCAASGFFFRNYAMGWYRQAPGKEMELVAVITSSGGSTYYADSVKGRFTISRDNAKNTVYLQMNSLKPEDTAVYYCNKPGLRSGPRYDYWGQGTQVTVSS")
"high polyreactivity"
>>> observed_result("QVQLVESGGGLVQAGGSLRLSCAASGFIFTDYAMGWYRQAPGKEREFVAAIDWSGGNTYYADSVKGRFTISRDNAKNTVYLLMNSLKPEDTAVYYCADSGSAREYDYWGQGTQVTVSS")
"low polyreactivity"
>>> observed_result("QVQLVESGGGLVQAGGSLRLSCAASGSIFTVNAMGWYRQAPGKERELVATITNGGGTYYADSVKGRFTISRDNAKNTVYLQMNSLKPEDTAVYYCAARTWGHYDYWGQGTQVTVSS")
"low polyreactivity"
>>> observed_result("QVQLVESGGGLVQAGGSLRLSCAASGSIFGANTMGWYRQAPGKERELVAGITSGARTYYADSVKGRFTISRDNAKNTVYLQMNSLKPEDTAVYYCAAQYAWRRYGYWGQGTQVTVSS")
"high polyreactivity"
>>> observed_result("QVQLVESGGGKVQAVGSLRLSCAASGRTFYPYAMGWYRQAPGKERELVAVITWSTGNTYYADSVKGRFTISRDNAKNTVYLQMNSLKPEDTAVYYCAAAYYRYRGTIRYYYWGQGTQVTVSS")
"high polyreactivity"
>>> observed_result("QVQLVESGGGLVQAGGSLRLSCAASGSIFYQNARGWYRQAPGKERELVAAISISDGSTYYADSVNGRFTISRDNAKNTVYLQMNILKPEDTAVYYCNADSLYYDPYDYWGQGTQVTVSS")
"low polyreactivity"
>>> observed_result("QVQILESGGGLVKAGGSLRLSCAASGYTFYANAMGWYRKAPGKEREFVASITWSGGSTYYADSVKGRFTISRDNAKNTVYLQMNSLKPEDTAVDYCAADVIGDLRWYRDEYLGQGTQVTVSS")
"low polyreactivity"
